Please provide measured pIC50 for the entries that follow.
- testSystem: IL-17A/A (Homo sapiens, UniProt Q16552)
- Construct: purchased Genscript Z03228
- testDescription: IL-17A/A HEK-Blue Cell Assay
- Assay type: cell-based
- assayConditions: IL-17A/A inhibition, HEK-Blue IL-17A reporter cell line, SEAP readout at A630, incubated for 20 hours
pIC50: −log10 of the molar value.

In plain terms, CCn1nccc1C(=O)N[C@@H](c1nc2nc(CC3CCNC3=O)ccc2[nH]1)C1CCC(F)(F)CC1 (stereo partly shown) has a documented pIC50 of < 6.00

In plain terms, CCn1nccc1C(=O)N[C@H](c1nc2ccc(C(C)C3CCCNC3=O)cc2[nH]1)C(C1CC1)C1CC1 (stereo partly shown) [Compound 82] has a documented pIC50 of 6.00 to 7.00

In plain terms, CCn1nccc1C(=O)N[C@H](c1nc2cc(C[C@H]3CCNC3=O)ccc2[nH]1)C1CCCCCC1 has a documented pIC50 of > 7.00

In plain terms, CCn1nccc1C(=O)N[C@H](c1nc2cc(C[C@H]3CCNC3=O)cc(F)c2[nH]1)C1CCC(F)(F)CC1 has a documented pIC50 of 6.00 to 7.00

In plain terms, CCn1nccc1C(=O)N[C@H](c1nc2cc(CC3CCC(C(F)(F)F)NC3=O)ccc2[nH]1)C(C1CC1)C1CC1 (stereo partly shown) [Compound 46] has a documented pIC50 of < 6.00

In plain terms, CCn1nccc1C(=O)N[C@H](c1nc2c(F)c(CC3CCNC3=O)ccc2[nH]1)C1CCC(F)(F)CC1 (stereo partly shown) has a documented pIC50 of 6.00 to 7.00

In plain terms, CCc1nonc1C(=O)N[C@H](c1nc2ccc(C[C@H]3CCNC3=O)cc2[nH]1)C1CCC(F)(F)CC1 has a documented pIC50 of 6.00 to 7.00

###

Please provide measured IC50 for the entries that follow.
- testSystem: IL-17A/A (Homo sapiens)
- Sequence (Q16552 24-155): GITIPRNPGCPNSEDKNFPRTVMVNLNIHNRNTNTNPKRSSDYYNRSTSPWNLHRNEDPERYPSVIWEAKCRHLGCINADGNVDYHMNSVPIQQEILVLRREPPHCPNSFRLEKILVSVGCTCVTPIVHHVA
- testDescription: IL-17A/A HEK-Blue Cell Assay
- assayConditions: IL-17A/A inhibition, HEK-Blue IL-17A reporter cell line, SEAP readout at A630, incubated for 20 hours

In plain terms, CCn1nccc1C(=O)N[C@H](c1nc2cc(C[C@@H]3C[C@@H](C(F)(F)F)NC3=O)ccc2[nH]1)C(C1CC1)C1CC1 (single isomer, unassigned) has a documented IC50 of 100 to 1000 nM

In plain terms, CCn1nccc1C(=O)N[C@H](c1nc2ccc(C(COC)C3C[C@@H](C(F)(F)F)NC3=O)cc2[nH]1)C(C1CC1)C1CC1 (stereo partly drawn) [Compound 78] has a documented IC50 of > 1000 nM

In plain terms, CCn1nccc1C(=O)N[C@H](c1nc2ccc(CC3CCCNC3=O)cc2[nH]1)C(C1CC1)C1CC1 (stereo partly drawn) has a documented IC50 of 100 to 1000 nM

In plain terms, CCn1nccc1C(=O)N[C@H](c1nc2cc(C(C)C3CCNC3=O)ccc2[nH]1)C(C1CC1)C1CC1 (stereo partly drawn) [Compound 24] has a documented IC50 of > 1000 nM

In plain terms, CCn1nccc1C(=O)N[C@H](c1nc2ccc(C[C@H]3CCCNC3=O)cc2[nH]1)[C@H]1CC[C@H](C)CC1 has a documented IC50 of > 1000 nM

In plain terms, CCn1nccc1C(=O)N[C@H](c1nc2c(F)c(C[C@H]3C[C@@H](C(F)(F)F)NC3=O)ccc2[nH]1)C(C1CC1)C1CC1 has a documented IC50 of < 100 nM

###

Please provide measured IC50 for the entries that follow.
- testSystem: IL-17A/A (Homo sapiens, UniProt Q16552)
- testDescription: IL-17A/A HEK-Blue Cell Assay
- assayConditions: IL-17A/A inhibition, HEK-Blue IL-17A reporter cell line, SEAP readout at A630, incubated for 20 hours

In plain terms, CCn1nccc1C(=O)N[C@H](c1nc2cc(C(C)C3CCNC3=O)ccc2[nH]1)C(C1CC1)C1CC1 (stereo partly shown) [Compound 23] has a documented IC50 of > 1000 nM

In plain terms, CCn1nccc1C(=O)N[C@H](c1nc2c(F)c(C[C@H]3C[C@H](C(F)(F)F)NC3=O)ccc2[nH]1)C(C1CC1)C1CC1 has a documented IC50 of 100 to 1000 nM

In plain terms, CCn1nccc1C(=O)N[C@H](c1nc2cc(C[C@@H]3CCNC3=O)ccc2[nH]1)C1CCC(F)(F)CC1 has a documented IC50 of > 1000 nM

In plain terms, CCn1nccc1C(=O)N[C@H](c1nc2cc(CC3CCC(C(F)(F)F)NC3=O)cc(F)c2[nH]1)C(C1CC1)C1CC1 (stereo partly shown) [Compound 55] has a documented IC50 of > 1000 nM

In plain terms, CCn1nccc1C(=O)N[C@H](c1nc2cc(CC3CCC(C(F)(F)F)NC3=O)cc(F)c2[nH]1)C(C1CC1)C1CC1 (stereo partly shown) [Compound 54] has a documented IC50 of > 1000 nM

In plain terms, CCn1nccc1C(=O)N[C@H](c1nc2ccc(C[C@H]3CCNC3=O)cc2[nH]1)[C@H]1CC[C@H](C)CC1 has a documented IC50 of < 100 nM

In plain terms, CCn1nccc1C(=O)N[C@H](c1nc2ccc(C[C@@H]3CCCNC3=O)c(F)c2[nH]1)C(C1CC1)C1CC1 has a documented IC50 of > 1000 nM

###

- testSystem: IL-17A/A (Homo sapiens, UniProt Q16552)
- Construct: purchased Genscript Z03228
- Sequence (Q16552 24-155): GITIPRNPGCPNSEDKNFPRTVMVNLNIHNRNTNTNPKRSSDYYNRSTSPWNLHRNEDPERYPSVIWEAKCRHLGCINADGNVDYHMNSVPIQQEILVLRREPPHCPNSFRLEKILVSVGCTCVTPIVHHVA
- testDescription: IL-17A/A HEK-Blue Cell Assay
- Assay type: cell-based
- assayConditions: IL-17A/A inhibition, HEK-Blue IL-17A reporter cell line, SEAP readout at A630, incubated for 20 hours
pIC50: −log10 of the molar value.
quantity: pIC50

Form field, pIC50 with IL-17A/A (Homo sapiens, UniProt Q16552), item CCn1nccc1C(=O)N[C@H](c1nc2ccc(C(C)C3CCCNC3=O)cc2[nH]1)C(C1CC1)C1CC1 (stereo partly shown) [Compound 83] : < 6.00

Form field, pIC50 with IL-17A/A (Homo sapiens, UniProt Q16552), item CCn1nccc1C(=O)N[C@H](c1nc2cc(CC3CCC(C(F)(F)F)NC3=O)cc(F)c2[nH]1)C(C1CC1)C1CC1 (stereo partly shown) [Compound 52] : 6.00 to 7.00

Form field, pIC50 with IL-17A/A (Homo sapiens, UniProt Q16552), item CCn1nccc1C(=O)N[C@H](c1nc2ccc(CC3CCCNC3=O)cc2[nH]1)[C@H]1CC[C@H](C(F)(F)F)CC1 (stereo partly shown) : < 6.00

Form field, pIC50 with IL-17A/A (Homo sapiens, UniProt Q16552), item CCn1nccc1C(=O)N[C@H](c1nc2ccc(CC3CCC(C)NC3=O)cc2[nH]1)C(C1CC1)C1CC1 (stereo partly shown) : 6.00 to 7.00

Form field, pIC50 with IL-17A/A (Homo sapiens, UniProt Q16552), item CCn1nccc1C(=O)N[C@H](c1nc2cc(CC3CC(C(F)(F)F)NC3=O)cc(F)c2[nH]1)C(C1CC1)C1CC1 (stereo partly shown) [Compound 33] : 6.00 to 7.00

Form field, pIC50 with IL-17A/A (Homo sapiens, UniProt Q16552), item CCn1nccc1C(=O)N[C@H](c1nc2c(F)c(CC3CCC(C(F)(F)F)NC3=O)ccc2[nH]1)C(C1CC1)C1CC1 (single isomer, unassigned) [Compound 51] : 6.00 to 7.00

Form field, pIC50 with IL-17A/A (Homo sapiens, UniProt Q16552), item CCn1nccc1C(=O)N[C@H](c1nc2c(F)c(CC3CCC(C(F)(F)F)NC3=O)ccc2[nH]1)C(C1CC1)C1CC1 (single isomer, unassigned) [Compound 50] : > 7.00

Form field, pIC50 with IL-17A/A (Homo sapiens, UniProt Q16552), item CCn1nccc1C(=O)N[C@H](c1nc2nc(C[C@H]3CCNC3=O)ccc2[nH]1)C1CCC(F)(F)CC1 : < 6.00

Form field, pIC50 with IL-17A/A (Homo sapiens, UniProt Q16552), item O=C1N[C@H](C(F)(F)F)C[C@@H]1Cc1ccc2nc([C@@H](NC(=O)C3(F)CC3)C(C3CC3)C3CC3)[nH]c2c1 : 6.00 to 7.00

Form field, pIC50 with IL-17A/A (Homo sapiens, UniProt Q16552), item CCn1nccc1C(=O)N[C@H](c1nc2cc(C[C@@H]3CCNC3=O)cc(F)c2[nH]1)C(C1CC1)C1CC1 : < 6.00

Form field, pIC50 with IL-17A/A (Homo sapiens, UniProt Q16552), item CCn1nccc1C(=O)N[C@H](c1nc2ccc(C[C@@H]3CC(F)(F)CNC3=O)cc2[nH]1)C(C1CC1)C1CC1 : 6.00 to 7.00

Form field, pIC50 with IL-17A/A (Homo sapiens, UniProt Q16552), item CCn1nccc1C(=O)N[C@H](c1nc2ccc(C(C)C3CCCNC3=O)cc2[nH]1)C(C1CC1)C1CC1 (stereo partly shown) [Compound 81] : < 6.00

Form field, pIC50 with IL-17A/A (Homo sapiens, UniProt Q16552), item CCn1nccc1C(=O)N[C@H](c1nc2ccc(CC3CC(F)(F)CNC3=O)cc2[nH]1)C(C1CC1)C1CC1 (stereo partly shown) : 6.00 to 7.00
